- experimental protocol: Determination of apparent solubility (shake flask, 37 °C, 12 h, HPLC external standard)
- Format: physicochemical
- condition set: pH 7.4 phosphate diluent, 37 °C, pH 7.4, aqueous buffer, thermodynamic from solid, pH value of Dilution 7.4; 37 °C ± 0.5 °C, 12h

chem smiles	solubility at 12 h
CCOc1cc([C@@H](CS(C)(=O)=O)N2C(=O)c3cccc(NC(C)=O)c3C2=O)ccc1OC	18.7 µg/mL

====

- experimental protocol: Determination of apparent solubility (shake flask, 37 °C, 12 h, HPLC external standard)
- Assay type: physicochemical
- condition set: pH 3.0 acetate diluent, 37 °C, pH 3, aqueous buffer, thermodynamic from solid, pH value of Dilution 3.0; 37 °C ± 0.5 °C, 12h

molecule	solubility at 12 h [µg/mL]
CCOc1cc([C@@H](CS(C)(=O)=O)N2C(=O)c3cccc(NC(C)=O)c3C2=O)ccc1OC [amorphous Apremilast]	66.8
